# assay comment: soluble on expression in E. coli; label from the status in PepcDB or PDB records
assay metric: soluble on expression in E. coli

INSERT INTO measurements (sequence_string, reported_measurement) VALUES
  ('DPFSNLTELANALKEKYQLKNVTVAFSQTNDYSEISKQISQSAAEYLEEIIHDDDILGVSWGTTMYKIAQKLSPQKAEIKVVQLKGGVSHSDVNTYAAETLALFGAAYDTAPVSLPLPVVLDNPLAKQMVEADRHIKNIIELGKKANIAIFTVGTVREEALLFRLGYFSDEEKIRLKEKAVGDICSRFFTINGEIADEKMNERTIGIDLQDLKQKETAILVAGGERKIKAIHGALRGGYANHFITDQYTAKQLLEQNFS', 'not soluble'),
  ('MKFNKSTMEANGDTSACNGYSDKQRKDVRVWCDGCYDMVHFGHANSLRQAKALGDKVIVGIHTDEEITKHKGPPVFTEEERVKMVKGIKWVDEVVLGAPYVTTLDVLDQNNCDFCVHGDDITMTAEGVDTYHLVKSANRYKEVKRTAGVSTTD', 'not soluble');

---

# assay comment: soluble on expression in E. coli; label from the status in PepcDB or PDB records
assay metric: soluble on expression in E. coli

INSERT INTO results (sequence_string, assay_metric, reported_measurement) VALUES
  ('MAKRVVSVSLGSSRRDAAAEVELLGERVLLERRGTDGDFQRALCLIQELDGKVDAIGLGGIDLYLFAGGRRYAIRDALRLKEAAKKTPVVDGSGLKHTLERRAVRELASLIDWRKTKVLLPSAVDRFGLAEALDEAGARVLYGDFIFALGLPIPLYSLSFLQKLAFLLLPLFTRLPFSVLYPTGKKQEEVREDWRARYYAWADVVAGDWHYVRRHMPKDMRGKTVITNTTTEEDVAFLRERGVRRLVTTTPRLGGRSFGTNVMEAMLVALAGRELGEADYLRYIDQIGLKPQVLELKGQA', 'soluble on expression in E. coli', 'soluble'),
  ('ATLDVRGGYRSGSHAYETRLKVSEGWQNGWWASMESNTWNTIHDNKKENAALNDVQVEVNYAIKLDDQWTVRPGMLTHFSSNGTRYGPYVKLSWDATKDLNFGIRYRYDWKAYRQQDLSGDMSRDNVHRWDGYVTYHINSDFTFAWQTTLYSKQNDYRYANHKKWATENAFVLQYHMTPDITPYIEYDYLDRQGVYNGRDNLSENSYRIGVSFKL', 'soluble on expression in E. coli', 'soluble');

---

# assay comment: soluble on expression in E. coli; label from the status in PepcDB or PDB records
assay metric: soluble on expression in E. coli

INSERT INTO results (sequence_string, assay_metric, reported_measurement) VALUES
  ('MVAKQISKADIHLLRVFCIVVDSQGFSNAQVALNVATSTISRQISELETRLGMRLCDRGRSGFRVTEKGETVYQAAQKLFGALGEFQETVDGSRGRLFGHLALGIIENWASNTSAPIVQALSRFTDLAPDVTIELHSLAPDDIEFAVLDGRVPIGIGVFHSPKPGILYTKVCEERVCLYCGSGHPLFHMTNLEDEERVLRQAQFAKRAYLNEDVVAPKTRNLPSNATAHQMEAIALLILTDKYVGYLPSYFAEEWVAKGRMKIVAGGSFDRPVSVQTATRRGMKLNSVGRTFLDILTAEAVKQGG', 'soluble on expression in E. coli', 'not soluble'),
  ('MGSDKIHHHHHHMQIGEVYFWTSTIKDWKNLLHQDKYKLLIIHCLKELVDRKMIKVYAFVIMPNHIHIVWEMLDQNGKEMPHASFNKKTAHEIVKDLKFNHPLVLPFFKVNEKEREYRIWQRDPLAIEMDSKKKAEQKIDYIHKNPLHERWNLAASPEEYYWSSAMYYQTGEDKFGFLTHYMERF', 'soluble on expression in E. coli', 'not soluble'),
  ('MTQHSRDTPQFYLTAPSPCPYLPGRHERKVFTHLVGNKAGELNDLLTHGGFRRSQSIAYRPACDQCRACVSVRVIANEFKPSRNQRKLLARNADIVGEQRNPVPTSEQYSVFRAYLDQRHRYGGMADMTVLDYAMMVEDSHVQTRMIEYRKRTPDTGITGRGGELIAAALTDVLGDGLSMVYSFYEPNEQHRSLGTFMILDHIARARRLGLPYVYLGYWIEGSKKMDYKGRYLPQQRLAPSGWLRIDASGEMQPEPQDLEHHHHHH', 'soluble on expression in E. coli', 'not soluble'),
  ('MENVTNFPLLQLPSKTIQVVLSIMSPFELINFSKSSAEAKKVVKQFANAKRRELYKFKVCIGLIPFVAFV', 'soluble on expression in E. coli', 'not soluble'),
  ('MGSDKIHHHHHHMTGEKVHLTGAKETLLMTLYGKALESRLPHSLLGDHFADEAVRKIDYDFSRLKVDENLGIGLAIRAKTLDVRVEDFLARNPGAIVLHLGCGLDTRVFRVDPPPGVDWFDADYPQVIELRRKLYPPRDHYHLIASSVTEPGWLAEVPRNRPAMVVAEGLTPYLPADEGLRLVSRLVSHLAGGELMFDAYSRFGLTLLRLSPTIKATGAEVHWAIDDPHELELAVPKLRFVEDISAYMPEHAARMGWSAKLFVRLWKHIPALRKVGRLLRYRF', 'soluble on expression in E. coli', 'not soluble');

Give one value of soluble on expression in E. coli per listed sequence.
1. MSLTECFLSDQEIRKLNRDLRILIAANGTLTRVLNIVADDEVIVQIVKQRIHDVSPKLSEFEQLGQVGVGRVLQRYIILKGRNSEHLFVAAESLIAIDRLPAAIITRLTQTNDPLGEVMAASHIETFKEEAKVWVGDLPGWLALHGYQNSRKRAVARRYRVISGGQPIMVVTEHFLRSVFRDAPHEEPDRWQFSNAITLAREGHHHHHH
2. MGSDKIHHHHHHMLDENFEALRREATAWIVRITSGTATTEDAEALLRWRSRSDAHEQAFQQSARLWKNLGSALGETRKTSASTVTRRSFIAAGSVAAGAAGVGVVLSELGFLPSVDAMLADYATGVGEQRTVELVDGSTAILDGGTTLSLDYSPSSRHLVLTSGAAVFDVVHDAARPFVVTAANGDTTATGTSFSVKHGEEDVSIECLEGHITVQCLGDSQLNGGEGISYSRAGLGKKVAADIETAAAWRRGLLIFEDRPLADVVSDLNRHRRGRVVIASSDLRSRRMSGVFHLNRPDEILAHLEETLQVRPVSLVGGIVLLR
3. GPGSMEDYKAKGNDAFKAKRYQEAIDWYTKAIELDPNGEASGALYSNRAGSWQNLNNFEKAAADSEQCIRLRPDWLKGYFRLGVAMESMVKYDEAQKAFQKALQLSPGNEEGWTSCTPLILKFASAYEKTKSRSARPLKKPSNLATPS
4. MTKSRKQKQKKQDFLRKKLKVGKPKEKARNATDTSFVSKTISIRNQHLDQNPHDLTKRLTLLKHHNINVRKETLTTFQKSIPSIIKSRLMTPLLTQSIPLICDESQQVRQGLIDLVDEIGSHDAEILKLHCNIFVLYINMAMTHIVTQIQADSTKFLSHLLKYCGDEVVRKSWVKLLNGVFGVLGWGQVGKNDSASIVQTKKRNAKYVTIHLNALYTLVEYGCQDERARSDGDTAETTEDSGTLRNPYLIPDYPQPFEHLKLFTRELKVQDATSSGVNATLLSLATQDIDTRKAVFIEQFLPIVRKKIEVIIKEGGECGKSANKLKTLLAKIFD
5. MTYCLGVKLKDGLVAIADTRITSGTDTTTAKKLFVHESAHGSLFLMTSGLRSVRDKAITYFKEVLKDEHVVYNQLYEAVNAFGNQLRRVAEEDRKALYAAGFAFNLHTIVGGQLKNDEEPKMFLLYPEGNWIELTQTSPFMIIGNSGYGKPILNRTVKYESTLEEVLKAGFLSFDSTRVSANDVDFPLDVVVYYNNSFKMIEHRFEKKDMEIISTTWDNQLKQALDSVPEEWMNVVFDRKNVLLEHHHHHH
6. MSGSLEIPGLDDGLLPVETGYGLFQGTAKKRVVICNDNDKFRHSGPLPRALCGSFAAIGLLPLPVVETRPAPPPKVAPITPALQGKACGQAVFEGLRNKNAVETVDNLPALRQTARTGKRWKALESLMQETPAIIYKIVPETLWTAARAEGMFEGAAIDLTDGFIHFSTAKQVAETAARHFSGQVDLLLIAVDGAALGDKLVYEPSRGGDLFPHLYAPLPFSAVLWETPLSLDHDGQHQFPEILLEHHHHHH
7. MSLFRFMKYKLFIDFEFNILDDNKNKPKEYNGAELISIGGILVDNEFNTIDNYYSLVKPKYNKILSNKCKNLTKLNQLDINNAPNLLYVMDDFYKWFCKFDDVTIYNWGDFDITGLLTSFRVYKYTGKCLELFNMMIDIQPFISQHITYNNRILSKQISLLNMKKIFSVEGDIKHNSLSDAVDLMNVCKCFFFNSPKNIDILEELYNKLPALKTEGHHHHHH

Result:
soluble
not soluble
soluble
soluble
not soluble
not soluble
soluble
